# credit: paper PMC8792998

# Target Desc: hERG (Homo sapiens, UniProt Q12809)
# Sequence (Q12809 whole entry): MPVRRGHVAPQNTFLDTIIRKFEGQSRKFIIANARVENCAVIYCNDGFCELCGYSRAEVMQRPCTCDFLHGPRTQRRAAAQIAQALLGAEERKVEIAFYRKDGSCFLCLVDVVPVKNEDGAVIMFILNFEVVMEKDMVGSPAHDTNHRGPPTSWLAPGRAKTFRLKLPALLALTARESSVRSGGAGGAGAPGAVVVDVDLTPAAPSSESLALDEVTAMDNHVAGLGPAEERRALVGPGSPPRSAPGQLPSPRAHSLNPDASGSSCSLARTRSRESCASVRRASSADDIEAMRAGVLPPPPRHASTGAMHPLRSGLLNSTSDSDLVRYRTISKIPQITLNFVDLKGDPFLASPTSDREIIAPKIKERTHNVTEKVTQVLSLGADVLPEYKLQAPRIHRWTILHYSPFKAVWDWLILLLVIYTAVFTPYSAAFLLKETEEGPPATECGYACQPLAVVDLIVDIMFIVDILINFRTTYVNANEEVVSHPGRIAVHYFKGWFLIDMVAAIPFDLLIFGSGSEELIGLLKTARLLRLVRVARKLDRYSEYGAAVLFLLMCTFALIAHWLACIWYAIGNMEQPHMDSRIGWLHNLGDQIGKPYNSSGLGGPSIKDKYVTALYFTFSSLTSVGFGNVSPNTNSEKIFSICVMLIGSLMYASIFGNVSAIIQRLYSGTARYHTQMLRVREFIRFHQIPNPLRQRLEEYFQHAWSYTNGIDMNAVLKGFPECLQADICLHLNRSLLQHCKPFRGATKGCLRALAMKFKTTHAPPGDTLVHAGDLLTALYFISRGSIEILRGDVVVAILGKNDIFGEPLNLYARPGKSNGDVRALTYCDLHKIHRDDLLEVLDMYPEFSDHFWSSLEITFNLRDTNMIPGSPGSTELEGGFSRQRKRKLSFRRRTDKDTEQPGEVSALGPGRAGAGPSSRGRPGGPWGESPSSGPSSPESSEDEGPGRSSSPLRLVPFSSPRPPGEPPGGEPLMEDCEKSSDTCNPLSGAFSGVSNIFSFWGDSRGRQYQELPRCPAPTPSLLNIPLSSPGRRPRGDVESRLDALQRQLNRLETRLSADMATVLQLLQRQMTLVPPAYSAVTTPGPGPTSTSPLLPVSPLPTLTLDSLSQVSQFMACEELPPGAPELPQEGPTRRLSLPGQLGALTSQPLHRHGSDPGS
# Assay Info: hERG-CHO automated patch clamp electrophysiology
# Format: cell-based
# Condition Details: human, CHO cells that express hERG
Observable: inhibition at 1 µM

Measured inhibition at 1 µM (hERG (Homo sapiens, UniProt Q12809)), entry O=C(Nc1ccc(Cl)c(Cl)c1)N1CCN(c2ccc3nncn3n2)CC1 : > 40%

----------
# Assay Info: Mouse PK study, plasma and jejunum
# Type: in vivo, CD-1 mice
# Condition Details: male, CD-1, mouse, jejunum, iv, 1 mg/kg
Observable: clearance (mL/min/kg)
Your answer should be a plain number; it is taken to be in mL/min/kg.

Input O=C(Cc1ccc(Cl)c(Cl)c1)N1CCN(c2ccc3nncn3n2)CC1 [Compound 12a] . Output clearance: 0.7
